assay: refractive index (Na D-line) (dimensionless); conditions: 293.15 K; 93.13 kPa; Liquid; Standard Abbe refractometry
measured.parameter: refractive index
# respond with the number and nothing more

Examples from the recorded data:
smiles_str=Cc1ccccc1C measured_parameter="refractive index" observed_value=1.5048
smiles_str=Cc1ccc(C)cc1 measured_parameter="refractive index" observed_value=1.4956
smiles_str=CCc1ccccc1 measured_parameter="refractive index" observed_value=1.4955
smiles_str=Cc1cccc(C)c1 measured_parameter="refractive index" observed_value=1.497

Bench note: what refractive index did `COc1ccccc1` show?
1.517

Hello, the source for this data is the NIST ThermoML archive (doi:10.1021/acs.jced.8b00348), in case you need it.
